system: R275C; assay: modulators of BK channel variants, profiling panel, selectivity assay, cell-based, U2OS BacMam, thallium flux, beta subunits (AID 1259406); details: at 30 µM;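 also: initial slope of Thallos dye fluorescence rise after thallium is added; log ratio against the mean of 0.3% DMSO vehicle wells on the same plate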
Calls of active or inactive are those of the source.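 The calls were made as follows: active = thallium flux through the channel raised or lowered by more than 3 SD from vehicle-only wells, actives on both sides; inactive = the rest.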
One label from this list, please: True for active, False for inactive

Completed entries (count: 3):
COMPOUND: CC1=NC2SC=C(c3ccccc3Cl)N2C(=O)C1 (centres undefined)
GROUP_LABEL: False

COMPOUND: CC[C@H]1OC(=O)[C@H](C)[C@@H](O[C@H]2C[C@@](C)(OC)[C@@H](O)[C@H](C)O2)[C@H](C)[C@@H](O[C@@H]2O[C@H](C)C[C@H](N(C)C)[C@H]2O)[C@](C)(O)C[C@@H](C)CN(C)[C@H](C)[C@@H](O)[C@]1(C)O
GROUP_LABEL: False

COMPOUND: CC(=O)OCC(=O)C12OC3(CCCC3)OC1CC1C3CCC4=CC(=O)C=CC4(C)C3(F)C(O)CC12C (centres undefined)
GROUP_LABEL: False

Please look at the following compound next.
Given CCOC(=O)c1cnc(C(F)(F)F)nc1NN=Cc1c(Cl)cccc1Cl , state the outcome it received in this test.
True

====

assay: JHH-DIPG-1 glioma cell viability, MIPE5.0 library, CellTiter-Glo luminescence, qHTS (AID 1347067); conditions: JHH-DIPG-1 glioma viability, CellTiter-Glo ATP luminescence;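 also: cells exposed to compound for 48 hours before readout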
Results filed as inconclusive are left out. Active and inactive are the calls of the source. No cut-off is given here; in the data, nearly all actives have AC50 up to about 26 µM.
API: response.call in label 1 = active, label 0 = inactive

Examples with answers:
COMPOUND: Oc1ccc2ccccc2c1SSc1c(O)ccc2ccccc12
GROUP_LABEL: label 1

COMPOUND: CC(=O)SCC(Cc1ccccc1)C(=O)NCC(=O)OCc1ccccc1 (stereo not given)
GROUP_LABEL: label 0

COMPOUND: CCC(C)N(C)C(=O)c1cc2ccccc2c(-c2ccccc2Cl)n1 (stereo not given)
GROUP_LABEL: label 0

COMPOUND: CCOC(=O)c1ccc(OC(=O)CCCCCN=C(N)N)cc1
GROUP_LABEL: label 0

COMPOUND: CC(C)C(C)/C=C/C(C)C1CCC2C3=CC=C4CC(O)CCC4(C)C3CCC21C (stereo not given)
GROUP_LABEL: label 0

COMPOUND: COc1ccc2nc3cc(Cl)ccc3c(Nc3cc(CN4CCCC4)c(O)c(CN4CCCC4)c3)c2n1
GROUP_LABEL: label 1

Identify the outcome logged in this assay for the compound shown: CC(C)[C@H](CO)Nc1nc(Nc2cccc(Cl)c2)c2ncn(C(C)C)c2n1
label 1

Please let me know the test result on file for OC[C@@H](O)[C@@H](O)[C@H](O)[C@@H](O)CO .
label 0

Tell me the assay call for COc1cc(C)c(/C=C/C(C)=C/C=C/C(C)=C/C(=O)O)c(C)c1C please.
label 0

Returns: the outcome recorded for CNC(=O)[C@H]1O[C@@H](n2cnc3c(NCc4cccc(I)c4)nc(Cl)nc32)[C@H](O)[C@@H]1O in this assay.
label 1

====

experiment: differential killing of epithelial or mesenchymal cells, primary screen, imaging, PC-3E GFP, TEM4-18 mCherry, co-culture (AID 1345086); settings: imaging cell counts, measured here: epithelial PC-3E GFP cell survival, at 1 µM;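 also: cells exposed to compound for 72 h before imaging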
Tick YES if normalised cell number is 1 or greater. Tick NO if normalised cell number is less than 1.

# example entries with known answers
MOLECULE: C[C@]12CCC3c4ccc(OC(=O)c5ccccc5)cc4CCC3C1CCC2=O (some centres not stated)
GROUP_LABEL: YES

MOLECULE: O=C(O)CCc1ccccc1O
GROUP_LABEL: YES

MOLECULE: CC(C)NCC(O)c1ccc(NS(C)(=O)=O)cc1 (configuration not stated)
GROUP_LABEL: YES

Given the entry CC[C@@H](C(=O)[C@@H](C)[C@@H](O)[C@H](C)[C@@H]1O[C@@H]([C@@H](CC)C(=O)O)CC[C@@H]1C)[C@H]1OC2(C=C[C@@H](O)[C@]3(CC[C@@](C)([C@H]4CC[C@](O)(CC)[C@H](C)O4)O3)O2)[C@H](C)C[C@@H]1C (some centres not stated) , answer whether its normalised cell number meets or surpasses 1.
NO

Say whether Cc1cc(O)c(C(=O)c2c(O)cccc2O)c(C(=O)O)c1 shows normalised cell number of 1 or more.
YES
